Target: T1, Bud14, P27637
T1 sequence (P27637 247-328, looked up): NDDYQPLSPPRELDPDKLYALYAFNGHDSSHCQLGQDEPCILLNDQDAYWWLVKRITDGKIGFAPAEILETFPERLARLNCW
Assay: SPOT array
Settings: median of control spots 956
SPOT intensity under 3 gets MET, anything at or over 3 gets NOT MET.

EQEEIAPSLPSRNSI
MET
TSFKGRPKPPKTLKH
MET
ATKSASPTLPTRRSR
NOT MET
QQEQNTPPLPPKPKS
MET
NTMKKRPAPPSLPSL
NOT MET
TTAPALPSLPPPPLL
MET
HRRRRVFSIPSLKSI
NOT MET
TPEIPPPLPPKIMVH
MET
PPPPPPPPPPLPQSL
MET
SSTPTTPERPKRKSG
MET
PVLPPPRSPNRPTLS
MET
ISNFVPPNLPMRRFK
NOT MET
NAGIRPKFILALNDE
NOT MET
MFLISPPASPPPEFD
MET
VSKLRSPNTPRRLRK
NOT MET
QRKSLRRPTLSKPAV
MET
APERAVPILPPRNNV
MET
APKHAPPPVPNETDN
MET
EAEEAAPQLPSRSSA
MET
QTMRQAPKRPDADVA
MET
NFFRKKLGIPRKLKR
NOT MET
FVLRYYILIPHEQWD
MET
